Ref: patent US20140358576A1

Adverse Event Seriousness for assorted compounds
# condition.details: human
Structures can show the parent of a compound that is named as a salt.
Please give only the number in your answer, with no unit.

> print(dat)
                                   compound                 value.kind  meas.value
1  CC(=O)O[C@]1(C(C)=O)CC[C@H]2[C@@H]3C[C@H](C)C4=CC(=O)CC[C@]4(C)[C@H]3CC[C@@]21C [medroxyprogesterone acetate]  Adverse Event Seriousness       19.89
2  CN(C)CCC=C1c2ccccc2C=Cc2ccccc21 [cyclobenzaprine hydrochloride]  Adverse Event Seriousness       12.25
3       CCCC(CCC)C(=O)O [divalproex sodium]  Adverse Event Seriousness        8.51
4  C[C@]12CC[C@@H]3c4ccc(O)cc4CC[C@H]3[C@@H]1CC[C@@H]2O  Adverse Event Seriousness       20.16
5  CC1(C)O[C@@H]2[C@@H](CO[C@@]3(COS(N)(=O)=O)OC(C)(C)O[C@@H]23)O1 [topiramate]  Adverse Event Seriousness       11.28

// query Adverse Event Seriousness value for entry CC(OC(=O)NCC1(CC(=O)O)CCCCC1)OC(=O)C(C)C (stereo not drawn)
4.67

// query Adverse Event Seriousness value for entry CCCCC[C@H](O)/C=C/[C@H]1[C@H](O)CC(=O)[C@@H]1C/C=C\CCCC(=O)O
15.66

// query Adverse Event Seriousness value for entry NS(=O)(=O)Cc1noc2ccccc12 [zonisamide]
11.03

// query Adverse Event Seriousness value for entry NC(=O)OCC(COC(N)=O)c1ccccc1 [felbamate]
7.72

###

# condition.details: human
value.kind: Outcome
Please give only the number in your answer, with no unit.

Worked examples, 6 compounds total:
compound	value.kind	meas.value
CS(=O)(=O)OCCCCOS(C)(=O)=O	Outcome	15.73
CCN(CC)CCNC(=O)c1cc(Cl)c(N)cc1OC [metoclopramide]	Outcome	15.38
C=CC[C@@H]1/C=C(\C)C[C@H](C)C[C@H](OC)[C@H]2O[C@@](O)(C(=O)C(=O)N3CCCC[C@H]3C(=O)O[C@H](/C(C)=C/[C@@H]3CC[C@@H](O)[C@H](OC)C3)[C@H](C)[C@@H](O)CC1=O)[C@H](C)C[C@@H]2OC	Outcome	15.75
COc1ccc2c3c1O[C@H]1C(=O)CC[C@@]4(O)[C@@H](C2)N(C)CC[C@]314	Outcome	14.81
CN(CCOc1ccc(CC2SC(=O)NC2=O)cc1)c1ccccn1 (stereo not shown)	Outcome	12.18
Nc1nc(F)nc2c1ncn2[C@@H]1O[C@H](CO)[C@@H](O)[C@@H]1O	Outcome	15.34

Here is another compound to look at.
// query Outcome value for entry CN1CC[C@]23c4c5ccc(O)c4O[C@H]2C(=O)CC[C@@]3(O)[C@H]1C5
10.33

###

Adverse Event Seriousness for assorted compounds
# condition.details: human
Structures can show the parent of a compound that is named as a salt.

Worked examples, 5 compounds total:
> print(dat)
                                   compound                 value.kind  meas.value
1  CN[C@@H](C)Cc1ccccc1 [methamphetamine hydrochloride]  Adverse Event Seriousness       15.73
2  O=P(O)(O)C(O)(Cn1ccnc1)P(=O)(O)O [zoledronic acid (Zometa), zoledronic acid]  Adverse Event Seriousness       14.61
3  O=P(O)(O)C(O)(Cn1ccnc1)P(=O)(O)O [zoledronic acid (Reclast), zoledronic acid]  Adverse Event Seriousness       12.33
4  CN1C(=O)C(O)N=C(c2ccccc2)c2cc(Cl)ccc21 (stereo not drawn) [temazepam]  Adverse Event Seriousness       12.79
5    CCC1(c2ccccc2)C(=O)NCNC1=O [primidone]  Adverse Event Seriousness        8.70

// query Adverse Event Seriousness value for entry CCCC(CCC)C(=O)[O-].[Na+] [valproate sodium]
10.26

// query Adverse Event Seriousness value for entry Cc1nnc2n1-c1ccc(Cl)cc1C(c1ccccc1)=NC2 [alprazolam]
13.30

// query Adverse Event Seriousness value for entry CN1CCN(C2=Nc3cc(Cl)ccc3Nc3ccccc32)CC1 [clozapine]
16.28

// query Adverse Event Seriousness value for entry C[C@H]1[C@H](NC(=O)/C(=N\OC(C)(C)C(=O)O)c2csc(N)n2)C(=O)N1S(=O)(=O)O [aztreonam]
14.58

###

# condition.details: human
Outcome for assorted compounds

Worked examples, 6 compounds total:
compound	Outcome
Nc1nnc(-c2cccc(Cl)c2Cl)c(N)n1 [lamotrigine]	10.41
Nc1cccc2c1C(=O)N(C1CCC(=O)NC1=O)C2=O (centres unmarked) [pomalidomide]	25.31
CC(OC(=O)NCC1(CC(=O)O)CCCCC1)OC(=O)C(C)C (centres unmarked) [gabapentin enacarbil]	7.53
O=P(O)(O)C(O)(Cn1ccnc1)P(=O)(O)O [zoledronic acid (Zometa), zoledronic acid]	7.55
O=C1CCC(N2C(=O)c3ccccc3C2=O)C(=O)N1 (centres unmarked) [thalidomide]	22.64
CCCCC[C@H](O)/C=C/[C@H]1[C@H](O)CC(=O)[C@@H]1C/C=C\CCCC(=O)O [dinoprostone]	19.09

// query Outcome value for entry O=C1NC(=O)C(c2ccccc2)(c2ccccc2)N1 [phenytoin sodium]
12.65

// query Outcome value for entry NS(=O)(=O)Cc1noc2ccccc12 [zonisamide]
13.71

// query Outcome value for entry CCC1(C)CC(=O)NC1=O (centres unmarked) [ethosuximide]
10.64

###

# condition.details: human
value.kind: Adverse Event Seriousness
Please give only the number in your answer, with no unit.

Worked examples, 3 compounds total:
> print(dat)
                                   compound                 value.kind  meas.value
1  O=C1CCCC(=O)C1C(=O)c1ccc(C(F)(F)F)cc1[N+](=O)[O-] [nitisinone]  Adverse Event Seriousness       15.20
2  C=CC(N)CCC(=O)O (stereo not shown) [vigabatrin]  Adverse Event Seriousness       13.32
3           CCCC(CCC)C(=O)O [valproic acid]  Adverse Event Seriousness       12.54

// query Adverse Event Seriousness value for entry O=C1CCC(N2C(=O)c3ccccc3C2=O)C(=O)N1 (stereo not shown) [thalidomide]
17.30

// query Adverse Event Seriousness value for entry CCC1(C)CC(=O)NC1=O (stereo not shown) [ethosuximide]
7.71

// query Adverse Event Seriousness value for entry Nc1nnc(-c2cccc(Cl)c2Cl)c(N)n1 [lamotrigine]
8.89

// query Adverse Event Seriousness value for entry N#Cc1ccccc1-c1cc(-c2ccccn2)cn(-c2ccccc2)c1=O [perampanel]
7.92

// query Adverse Event Seriousness value for entry CNC[C@H](O)c1ccc(O)c(O)c1 [epinephrine injection, epinephrine]
4.69

// query Adverse Event Seriousness value for entry NCC1(CC(=O)O)CCCCC1 [gabapentin]
9.67

// query Adverse Event Seriousness value for entry CCCCCN(C)CCC(O)(P(=O)(O)O)P(=O)(O)O [ibandronate sodium]
10.42

###

# condition.details: human
Decide using Literature: a value greater than or equal to 10 is YES, a smaller one is NO.

molecule	label.value
CCCCC[C@H](O)CC[C@@H]1[C@H]2Cc3cccc(OCC(=O)O)c3C[C@H]2C[C@H]1O	NO
COc1ccc2c3c1O[C@H]1C(=O)CC[C@@]4(O)[C@@H](C2)N(C)CC[C@]314	YES
Nc1nc(F)nc2c1ncn2[C@@H]1O[C@H](CO)[C@@H](O)[C@@H]1O	YES

Hello, I need to know if CN1CC[C@]23c4c5ccc(O)c4O[C@H]2C(=O)CC[C@@]3(O)[C@H]1C5 has measured Literature not below 10. Thanks!
YES

Hello, I need to know if CCN(CC)CCNC(=O)c1cc(Cl)c(N)cc1OC [metoclopramide] has measured Literature not below 10. Thanks!
YES

Hello, I need to know if CS(=O)(=O)OCCCCOS(C)(=O)=O has measured Literature not below 10. Thanks!
YES

Hello, I need to know if CN(CCOc1ccc(CC2SC(=O)NC2=O)cc1)c1ccccn1 (stereo not shown) has measured Literature not below 10. Thanks!
YES

Hello, I need to know if CCC(=O)C(CC(C)N(C)C)(c1ccccc1)c1ccccc1 (stereo not shown) has measured Literature not below 10. Thanks!
YES

Hello, I need to know if NCCCC(O)(P(=O)(O)O)P(=O)(O)O [alendronate] has measured Literature not below 10. Thanks!
NO

Hello, I need to know if C=CC[C@@H]1/C=C(\C)C[C@H](C)C[C@H](OC)[C@H]2O[C@@](O)(C(=O)C(=O)N3CCCC[C@H]3C(=O)O[C@H](/C(C)=C/[C@@H]3CC[C@@H](O)[C@H](OC)C3)[C@H](C)[C@@H](O)CC1=O)[C@H](C)C[C@@H]2OC has measured Literature not below 10. Thanks!
NO

###

# condition.details: Example 1 component score, up to 8.68 points
value.kind: Condition Seriousness
Please give only the number in your answer, with no unit.

Worked examples, 5 molecules total:
molecule	meas.value
C=CC[C@@H]1/C=C(\C)C[C@H](C)C[C@H](OC)[C@H]2O[C@@](O)(C(=O)C(=O)N3CCCC[C@H]3C(=O)O[C@H](/C(C)=C/[C@@H]3CC[C@@H](O)[C@H](OC)C3)[C@H](C)[C@@H](O)CC1=O)[C@H](C)C[C@@H]2OC [tacrolimus]	3.13
COc1ccccc1Oc1c(NS(=O)(=O)c2ccc(C(C)(C)C)cc2)nc(-c2ncccn2)nc1OCCO [bosentan]	2.07
CN(CCOc1ccc(CC2SC(=O)NC2=O)cc1)c1ccccn1 (stereo not shown) [rosiglitazone]	3.77
CCN(CC)CCNC(=O)c1cc(Cl)c(N)cc1OC [metoclopramide]	7.15
NCCCC(O)(P(=O)(O)O)P(=O)(O)O [alendronate]	7.02

// query Condition Seriousness value for entry CCCCC[C@H](O)CC[C@@H]1[C@H]2Cc3cccc(OCC(=O)O)c3C[C@H]2C[C@H]1O [treprostinil]
4.00

// query Condition Seriousness value for entry CS(=O)(=O)OCCCCOS(C)(=O)=O [busulfan]
2.52
